# Tested on: RXRa DBDmut IVT, anti-RXR (DBD mutation: RXRa K156A/R161A, NR concentration 90 nM)
# measurement protocol: PBM binding z-score (relative to random genomic background probes); higher = stronger binding; sequences stand for … in GC…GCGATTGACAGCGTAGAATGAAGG
reported endpoint: PBM binding z-score

Study these solved cases before continuing.
GCTTGTAGAGCAAGGTTAAGAAAGACTAAGCTAA ... -0.22
CTCGAAAGGTCGGTTGGGGTGAGTATACGGATAA ... 1.18

GET PBM binding z-score where system = RXRa DBDmut IVT, anti-RXR (DBD mutation: RXRa K156A/R161A, NR concentration 90 nM) and item = ACAGACAGGTGAGTGAAGGTGACTCAGCTGGACG -0.543

GET PBM binding z-score where system = RXRa DBDmut IVT, anti-RXR (DBD mutation: RXRa K156A/R161A, NR concentration 90 nM) and item = CGAACTAGGTCATTGACTGGACAGTGAATAGTAA 2.1

GET PBM binding z-score where system = RXRa DBDmut IVT, anti-RXR (DBD mutation: RXRa K156A/R161A, NR concentration 90 nM) and item = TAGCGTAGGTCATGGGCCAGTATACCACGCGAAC -0.189

GET PBM binding z-score where system = RXRa DBDmut IVT, anti-RXR (DBD mutation: RXRa K156A/R161A, NR concentration 90 nM) and item = CATACAGGGTCAGCTAGGCCTGAGTAGGGACGGC 1.02

GET PBM binding z-score where system = RXRa DBDmut IVT, anti-RXR (DBD mutation: RXRa K156A/R161A, NR concentration 90 nM) and item = ATATGTAGGATACATCCGGGTCATTCAGGCTATG 0.223

GET PBM binding z-score where system = RXRa DBDmut IVT, anti-RXR (DBD mutation: RXRa K156A/R161A, NR concentration 90 nM) and item = AATACAGGGTCATCGTATGCCAGAGTACGCACAG 3.42

GET PBM binding z-score where system = RXRa DBDmut IVT, anti-RXR (DBD mutation: RXRa K156A/R161A, NR concentration 90 nM) and item = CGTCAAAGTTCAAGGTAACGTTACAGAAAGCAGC 4.52

GET PBM binding z-score where system = RXRa DBDmut IVT, anti-RXR (DBD mutation: RXRa K156A/R161A, NR concentration 90 nM) and item = AATACAGGGTCACTAGGCCAGATTAGGTACGAAT 3.03

GET PBM binding z-score where system = RXRa DBDmut IVT, anti-RXR (DBD mutation: RXRa K156A/R161A, NR concentration 90 nM) and item = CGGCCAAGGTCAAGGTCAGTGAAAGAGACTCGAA 3.48

GET PBM binding z-score where system = RXRa DBDmut IVT, anti-RXR (DBD mutation: RXRa K156A/R161A, NR concentration 90 nM) and item = AGAACGAGGGTAATGAGTTGATAGCACGGGTGGC 0.405

GET PBM binding z-score where system = RXRa DBDmut IVT, anti-RXR (DBD mutation: RXRa K156A/R161A, NR concentration 90 nM) and item = ACTATTAGTTGAGCCGAGGGCAACCGATAGGTTG 0.39

GET PBM binding z-score where system = RXRa DBDmut IVT, anti-RXR (DBD mutation: RXRa K156A/R161A, NR concentration 90 nM) and item = CGTCCTAGGTCAATGCTAGGTCAGTGAAAGCATT 1.83

GET PBM binding z-score where system = RXRa DBDmut IVT, anti-RXR (DBD mutation: RXRa K156A/R161A, NR concentration 90 nM) and item = CAAACTAGGTCACCGGAAGGTAAAAGTCCGCATG 1.61

GET PBM binding z-score where system = RXRa DBDmut IVT, anti-RXR (DBD mutation: RXRa K156A/R161A, NR concentration 90 nM) and item = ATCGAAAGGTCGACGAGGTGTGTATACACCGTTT 1.18

GET PBM binding z-score where system = RXRa DBDmut IVT, anti-RXR (DBD mutation: RXRa K156A/R161A, NR concentration 90 nM) and item = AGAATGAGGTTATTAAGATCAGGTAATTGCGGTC 1.8

GET PBM binding z-score where system = RXRa DBDmut IVT, anti-RXR (DBD mutation: RXRa K156A/R161A, NR concentration 90 nM) and item = ACTATTAGTTGAGACGAGGGCGACCGATAGGTTG 0.572

GET PBM binding z-score where system = RXRa DBDmut IVT, anti-RXR (DBD mutation: RXRa K156A/R161A, NR concentration 90 nM) and item = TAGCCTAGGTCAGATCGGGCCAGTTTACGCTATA -0.346

GET PBM binding z-score where system = RXRa DBDmut IVT, anti-RXR (DBD mutation: RXRa K156A/R161A, NR concentration 90 nM) and item = AAAACAGGGTCACTAGGCCAGAGTAGGTACGAAT 2.95

GET PBM binding z-score where system = RXRa DBDmut IVT, anti-RXR (DBD mutation: RXRa K156A/R161A, NR concentration 90 nM) and item = GCTATTACTTGAAAGGGCAACCGAATGATTCTCG 0.581

---

Listing: PBM binding z-score of selected sequences
# Tested on: PPARg:RXRa DBDmut IVT, anti-RXR (DBD mutation: RXRa K156A/R161A, NR concentration 270 nM, RXRa partner concentration 90 nM)
# measurement protocol: PBM binding z-score (relative to random genomic background probes); higher = stronger binding; sequences stand for … in GC…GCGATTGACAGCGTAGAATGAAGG
Kindly provide the number alone.

Study these solved cases before continuing.
CCTTACGGGACACTGACAGGTTATAGCATTTGGA ... 0.975
ACTAGTAGTTGACTTAGGGCAACCGATACGACGC ... -0.00679
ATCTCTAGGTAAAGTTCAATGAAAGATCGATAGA ... 2.42
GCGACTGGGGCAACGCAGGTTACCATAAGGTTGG ... 4.39
TCTTGTAGATCAAAGGTTAAGAAGGCCGAAGCCT ... 2.13
ACTATTAGTTGAGACGAGGGCAACCGCTAGGTTG ... 0.0597
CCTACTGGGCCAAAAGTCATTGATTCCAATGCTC ... 4.9
CCTTACGAGTCACTGACAGGTTATAGCATTTGGA ... 0.816
CCAGACAGTTGAGAAGGTAACTCAGCCTCGATTA ... 0.0699
ACTCGGAGGACAAAGGTCATAGCTACGCCAGTGA ... 1.2

Using the record for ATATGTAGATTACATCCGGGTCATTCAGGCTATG , state its measured PBM binding z-score. 1.44

Using the record for ATCTCTAGGTAAAGATAGTTCAGTAAATGCAAAT , state its measured PBM binding z-score. 1.89

---

# System: VDR:RXRa (NR concentration 270 nM, RXRa partner concentration 90 nM)
# measurement protocol: PBM binding z-score (relative to random genomic background probes); higher = stronger binding; sequences stand for … in GC…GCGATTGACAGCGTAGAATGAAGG
reported endpoint: PBM binding z-score
Kindly provide the number alone.

ACTAGGAGGCCAAGTTTGGGTCACTCAAACAAAG ... 1.08
GCTAGTTGGTCAGTTAAAGGTCACACACCGGTCG ... 3.95
GCTAGCAGGCCAGTTGGGTCACTCAATGACGGGC ... -0.00125
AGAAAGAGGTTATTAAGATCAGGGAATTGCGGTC ... 2.57
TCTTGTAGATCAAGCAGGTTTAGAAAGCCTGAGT ... 0.444

Let's switch to this sequence now.
Using the record for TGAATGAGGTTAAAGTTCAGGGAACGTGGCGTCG , state its measured PBM binding z-score. 4.37

---

# System: PPARg:RXRa 270nM:90nM, anti-RXR (NR concentration 270 nM, RXRa partner concentration 90 nM)
# measurement protocol: PBM binding z-score (relative to random genomic background probes); higher = stronger binding; sequences stand for … in GC…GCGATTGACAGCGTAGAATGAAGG
Class definitions on PBM binding z-score: range A = under 1, range B = from 1 up to 4, range C = 4 and over

Category lookup for the sequence TCTTGGAGATCAACAGGAGGTTAAGAAAGATCGA range B

Category lookup for the sequence GTACCAAGGTGCATAGGTCGTTGATGAGTAGGCG range B

Category lookup for the sequence TCATATAGGTAAACAGGGGAAAGTCCGTAAGTTA range B

Category lookup for the sequence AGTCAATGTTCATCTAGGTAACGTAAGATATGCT range A

Category lookup for the sequence TCGGGTAGGTTACCAATGGGGCATTCAGCTTTCT range B
